Reference for the values: patent US10793553B2

- Tested System: TLR8 (Homo sapiens, UniProt Q9NR97)
- Sequence (Q9NR97 27-1041): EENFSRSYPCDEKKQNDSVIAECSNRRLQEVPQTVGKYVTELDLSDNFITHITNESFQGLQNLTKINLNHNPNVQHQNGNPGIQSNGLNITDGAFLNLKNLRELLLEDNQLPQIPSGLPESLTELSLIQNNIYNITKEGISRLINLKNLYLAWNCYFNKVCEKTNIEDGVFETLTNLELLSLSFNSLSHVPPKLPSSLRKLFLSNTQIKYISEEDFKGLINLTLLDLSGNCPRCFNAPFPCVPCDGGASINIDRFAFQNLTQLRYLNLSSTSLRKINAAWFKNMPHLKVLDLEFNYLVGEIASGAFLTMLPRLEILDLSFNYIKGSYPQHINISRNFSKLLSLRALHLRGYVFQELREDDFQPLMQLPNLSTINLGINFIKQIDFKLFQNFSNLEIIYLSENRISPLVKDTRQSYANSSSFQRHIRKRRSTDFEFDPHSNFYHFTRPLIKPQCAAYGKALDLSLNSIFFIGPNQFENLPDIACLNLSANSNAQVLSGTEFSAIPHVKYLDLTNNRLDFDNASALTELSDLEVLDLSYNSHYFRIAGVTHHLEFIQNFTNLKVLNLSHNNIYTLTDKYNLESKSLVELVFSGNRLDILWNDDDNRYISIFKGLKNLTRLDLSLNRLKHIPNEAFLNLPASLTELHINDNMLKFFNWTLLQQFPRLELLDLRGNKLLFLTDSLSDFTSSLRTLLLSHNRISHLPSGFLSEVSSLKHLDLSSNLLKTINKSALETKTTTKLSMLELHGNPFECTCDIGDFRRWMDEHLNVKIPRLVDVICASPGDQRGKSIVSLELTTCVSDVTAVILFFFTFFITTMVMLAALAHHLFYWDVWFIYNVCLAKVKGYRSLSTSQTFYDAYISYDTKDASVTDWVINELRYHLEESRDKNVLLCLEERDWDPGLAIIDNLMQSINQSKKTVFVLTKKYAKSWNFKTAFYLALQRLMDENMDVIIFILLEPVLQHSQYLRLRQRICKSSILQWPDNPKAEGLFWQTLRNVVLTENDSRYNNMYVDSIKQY
- Experiment Description: HEK TLR8 Cell Assay
- Run Parameters: TLR8/NFKb HEK cells, R848 agonist 30 uM final, Steady-Glo readout
pIC50: −log10 of the molar value.
molecules and their reported pIC50

Past entries and their recorded results:
Req: Assign pIC50 to the following record: NC1CN(c2ccc(C(F)(F)F)c3ncccc23)CC1F (single isomer, unassigned) [Compound 49]
Resp: < 5.00

Req: Assign pIC50 to the following record: NC1CN(c2ccc(C(F)(F)F)c3ncccc23)CC1F (single isomer, unassigned) [Compound 50]
Resp: < 5.00

Others:
Req: Assign pIC50 to the following record: C[C@@H]1CN(c2ccc(C#N)c3nccnc23)C[C@@H]1NC(=O)CC1CCCN(C)C1 (single isomer, unassigned) [Compound 3]
Resp: > 6.00

Req: Assign pIC50 to the following record: C[C@@H]1CN(c2ccc(C#N)c3nccnc23)C[C@@H]1NC(=O)CC1(F)CCNCC1
Resp: > 6.00

Req: Assign pIC50 to the following record: Cc1ccc(N2C[C@@H](C)[C@@H](NC(=O)CC3CCN(C)CC3(F)F)C2)c2cccnc12 (single isomer, unassigned) [Compound 44]
Resp: 5.00 to 6.00

---

molecules and their reported IC50
- Tested System: TLR7 (Homo sapiens, UniProt Q9NYK1)
- Sequence (Q9NYK1 27-1049): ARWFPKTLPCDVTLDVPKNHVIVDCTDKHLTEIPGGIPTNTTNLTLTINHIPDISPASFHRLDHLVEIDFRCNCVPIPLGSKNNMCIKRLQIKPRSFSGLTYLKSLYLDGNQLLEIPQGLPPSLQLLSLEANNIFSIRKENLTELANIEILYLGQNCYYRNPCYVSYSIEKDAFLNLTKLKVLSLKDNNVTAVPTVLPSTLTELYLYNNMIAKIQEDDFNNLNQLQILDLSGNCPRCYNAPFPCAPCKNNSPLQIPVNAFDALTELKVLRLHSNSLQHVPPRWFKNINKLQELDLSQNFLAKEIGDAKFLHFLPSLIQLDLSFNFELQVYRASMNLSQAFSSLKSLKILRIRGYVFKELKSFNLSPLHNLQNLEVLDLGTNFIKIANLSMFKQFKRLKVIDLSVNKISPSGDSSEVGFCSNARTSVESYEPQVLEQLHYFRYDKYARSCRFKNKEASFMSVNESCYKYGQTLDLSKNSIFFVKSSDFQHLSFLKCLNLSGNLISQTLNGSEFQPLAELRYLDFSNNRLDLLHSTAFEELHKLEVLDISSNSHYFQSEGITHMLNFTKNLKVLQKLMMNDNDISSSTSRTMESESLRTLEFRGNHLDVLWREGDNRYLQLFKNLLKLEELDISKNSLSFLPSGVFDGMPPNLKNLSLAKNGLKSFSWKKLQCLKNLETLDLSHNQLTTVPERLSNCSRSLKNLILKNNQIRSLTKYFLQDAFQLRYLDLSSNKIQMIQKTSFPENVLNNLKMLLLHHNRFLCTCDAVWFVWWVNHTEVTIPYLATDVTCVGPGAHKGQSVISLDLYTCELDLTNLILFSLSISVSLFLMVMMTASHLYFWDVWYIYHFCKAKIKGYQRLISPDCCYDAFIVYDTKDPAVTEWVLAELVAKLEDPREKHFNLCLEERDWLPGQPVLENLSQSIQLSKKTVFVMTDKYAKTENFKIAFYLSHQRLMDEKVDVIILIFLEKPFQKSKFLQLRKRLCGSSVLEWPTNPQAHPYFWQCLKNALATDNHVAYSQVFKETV
- Experiment Description: HEK TLR7 Cell Assay
- Run Parameters: TLR7/NFKb HEK cells, R848 agonist 10 uM final, Steady-Glo readout

Req: Assign IC50 to the following record: C[C@@H]1CN(c2ccc(C#N)c3nccnc23)C[C@@H]1NC(=O)CC1(F)CCN(C)CC1 [Compound 10]
Resp: < 1000 nM

Req: Assign IC50 to the following record: Cc1ccc(N2C[C@@H](C)[C@@H](NC(=O)[C@H](O)C(C)C)C2)c2cccnc12 [Compound 48]
Resp: > 10000 nM

Req: Assign IC50 to the following record: C[C@@H]1CN(c2ccc(C#N)c3nccnc23)C[C@@H]1NC(=O)CC1CCCN(C)C1 (single isomer, unassigned) [Compound 4]
Resp: < 1000 nM

Req: Assign IC50 to the following record: Cc1ccc(N2C[C@@H](C)[C@@H](NC(=O)CC3CCN(C)C3)C2)c2cccnc12 (single isomer, unassigned) [Compound 38]
Resp: < 1000 nM

Req: Assign IC50 to the following record: C[C@@H]1CN(c2ccc(C(F)(F)F)c3ncccc23)C[C@@H]1NC(=O)CC1(F)CCN(C)CC1 [Compound 26]
Resp: < 1000 nM

Req: Assign IC50 to the following record: Cc1ccc(N2C[C@@H](C)[C@@H](NC(=O)CC3(F)CCNCC3)C2)c2cccnc12 [Compound 41]
Resp: < 1000 nM

Others:
Req: Assign IC50 to the following record: CC(C)[C@H](O)C(=O)N[C@H]1CN(c2ccc(C(F)(F)F)c3ncccc23)C[C@H]1C [Compound 31]
Resp: 1000 to 10000 nM

---

- Tested System: TLR8 (Homo sapiens, UniProt Q9NR97)
- Experiment Description: HEK TLR8 Cell Assay
- Run Parameters: TLR8/NFKb HEK cells, R848 agonist 30 uM final, Steady-Glo readout
pIC50: −log10 of the molar value.
Endpoint Label: pIC50

Req: Assign pIC50 to the following record: C[C@@H]1CN(c2ccc(C#N)c3nccnc23)C[C@@H]1NC(=O)CC1CCN(C)C1 (single isomer, unassigned) [Compound 5]
Resp: > 6.00

Req: Assign pIC50 to the following record: C[C@@H]1CN(c2ccc(C(F)(F)F)c3ncccc23)C[C@@H]1NC(=O)CN1CCOCC1
Resp: < 5.00

Req: Assign pIC50 to the following record: C[C@@H]1CN(c2ccc(C(F)(F)F)c3ncccc23)C[C@@H]1N
Resp: < 5.00

Req: Assign pIC50 to the following record: Cc1ccc(N2C[C@@H](C)[C@@H](NC(=O)CN3CCOCC3)C2)c2cccnc12
Resp: < 5.00

Req: Assign pIC50 to the following record: CC(C)[C@H](O)C(=O)N[C@H]1CN(c2ccc(C(F)(F)F)c3ncccc23)C[C@H]1C
Resp: < 5.00

Req: Assign pIC50 to the following record: Cc1ccc(N2C[C@@H](C)[C@@H](NC(=O)CC3CCN(C)CC3(F)F)C2)c2cccnc12 (single isomer, unassigned) [Compound 43]
Resp: < 5.00

Others:
Req: Assign pIC50 to the following record: C[C@@H]1CN(c2ccc(C#N)c3nccnc23)C[C@@H]1NC(=O)CC1CCN(C)CC1(F)F (single isomer, unassigned) [Compound 11]
Resp: > 6.00
